- Assay explanation: AUC (0 to 24 hrs) in Sprague-Dawley rat at 3 mg/kg, po
- Format: ADME, organism-based
- Set-up: time < 24 hr, dose 3 mg/kg, route oral
- Condition details: plasma
Readout name: AUC(0-t) at 24 h

// query AUC(0-t) at 24 h value for entry CC(=O)NCCN[C@H](C)c1cnc2c(C)c(NC(=O)c3ccc(OCC4CC4)cc3)ccc2c1
1940 ng·h/mL

* * *

- Assay explanation: Bioavailability in Sprague-Dawley rat
- Assay type: ADME, organism-based
- Condition details: in vivo
Readout name: bioavailability (%)
Return type: number; implicit unit %.

// query bioavailability value for entry CC(=O)NCCN[C@H](C)c1cnc2c(C)c(NC(=O)c3ccc(OCC4CC4)cc3)ccc2c1
43

* * *

Quick reference for pIC50 among some compounds
- Target desc: Melanin-concentrating hormone receptor 1 (Homo sapiens, UniProt Q99705)
- Sequence (Q99705 whole entry): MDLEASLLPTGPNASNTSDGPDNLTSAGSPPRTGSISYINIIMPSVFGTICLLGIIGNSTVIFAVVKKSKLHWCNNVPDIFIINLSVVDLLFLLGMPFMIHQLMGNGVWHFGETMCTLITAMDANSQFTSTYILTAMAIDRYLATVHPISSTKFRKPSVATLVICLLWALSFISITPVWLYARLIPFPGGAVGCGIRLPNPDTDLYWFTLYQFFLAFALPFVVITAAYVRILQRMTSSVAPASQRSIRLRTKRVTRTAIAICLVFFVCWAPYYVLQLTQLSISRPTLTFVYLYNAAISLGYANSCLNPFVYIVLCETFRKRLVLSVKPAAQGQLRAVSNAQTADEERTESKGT
- Assay explanation: Displacement of [125I]MCH from human MCHR1 expressed in CHO cells after 60 mins by liquid scintillation counting
- Type: cell-based
In plain terms, pIC50 is the concentration in mol/L turned into minus its base-10 logarithm.

Short answer please: pIC50, Melanin-concentrating hormone receptor 1 (Homo sapiens, UniProt Q99705), entry Cc1c(NC(=O)c2ccc(OCC3CC3)cc2)ccc2cc(C(C)NCC(C)(C)O)cnc12 (racemic)
8.82

* * *

- Assay explanation: Lipophilicity, log D of the compound at pH 7.4
- Assay type: physicochemical
- Condition details: buffer
Readout name: logD
// return a plain number; no unit text

Example entries begin here.
> print(dat)
                                   molecule  observed.measurement
1  Cc1c(NC(=O)c2ccc(OCC3CC3)cc2)ccc2cc(CN3CCCC3)cnc12                  2.77
2  Cc1c(NC(=O)c2ccc(OCC3CC3)cc2)ccc2cc([C@H](C)N3CCCC3)cnc12                  2.99
3  CCCCCC(=O)c1ccc(C(=O)Nc2ccc3cc(CN4CCCC4)cnc3c2C)cc1                   3.5
4  Cc1c(NC(=O)c2ccc(OCC3CC3)cc2)ccc2cc(C(C)N3CCCC3)cnc12 (racemic)                     3

Attention now turns to another entry.
// query logD value for entry Cc1c(NC(=O)c2ccc(-c3ccc(F)cc3)cc2)ccc2cc(CN3CCCC3)cnc12
2.77

* * *

Quick reference for pIC50 among some molecules
- Target desc: UniProtKB Q99705
- Assay explanation: Antagonist activity at human MCHR1 expressed in CHO cells assessed as inhibition of MCH-stimulated arachidonic acid release after 45 mins by liquid scintillation counting
- Type: functional, cell-based
In plain terms, pIC50 is the concentration in mol/L turned into minus its base-10 logarithm.

> print(dat)
                                   molecule       target.desc  observed.measurement
1  Cc1c(NC(=O)c2ccc(OCC3CC3)cc2)ccc2cc(CN3CCCC3)cnc12  UniProtKB Q99705                  8.37
2  Cc1c(NC(=O)c2ccc(OCC3CC3)cc2)ccc2cc([C@H](C)N3CCCC3)cnc12  UniProtKB Q99705                  8.40
3  Cc1c(NC(=O)c2ccc(OCC3CC3)cc2)ccc2cc(C(C)N3CCCC3)cnc12 (racemic)  UniProtKB Q99705                  8.19
4  Cc1c(NC(=O)c2ccc(OCC3CC3)cc2)ccc2cc(C(C)N3CCCCCC3)cnc12 (racemic)  UniProtKB Q99705                  8.47
5  Cc1c(NC(=O)c2ccc(OCC3CC3)cc2)ccc2cc(C(C)NCC(C)(C)O)cnc12 (racemic)  UniProtKB Q99705                  8.19

Attention now turns to another entry.
Short answer please: pIC50, UniProtKB Q99705, entry Cc1c(NC(=O)c2ccc(OCC3CC3)cc2)ccc2cc([C@@H](C)N3CCCC3)cnc12
8.54

* * *

- Target desc: UniProt Q12809
- Assay explanation: Inhibition of human ERG expressed in HMZ/CHO.8B4 cells assessed as inhibition of Rb+ efflux at 30 uM after 30 mins by flame atomic absorption spectrometer analysis relative to astemizole
- Type: cell-based
- Condition details: 0.5 h
Readout name: Ratio
// return a plain number; no unit text

Example entries begin here.
> print(dat)
                                   molecule  observed.measurement
1  Cc1c(NC(=O)c2ccc(OCC3CC3)cc2)ccc2cc([C@@H](C)N3CCCC3)cnc12                  1.11
2  Cc1c(NC(=O)c2ccc(OCC3CC3)cc2)ccc2cc(CN3CCCC3)cnc12                   0.9
3  Cc1c(NC(=O)c2ccc(OCC3CC3)cc2)ccc2cc(C(C)N3CCCCCC3)cnc12 (racemic)                  0.73
4  Cc1c(NC(=O)c2ccc(-c3ccc(F)cc3)cc2)ccc2cc(CN3CCCC3)cnc12                  0.17
5  Cc1c(NC(=O)c2ccc(OCC3CC3)cc2)ccc2cc(C(C)N3CCCC3)cnc12 (racemic)                  1.02

// query Ratio value for entry Cc1c(NC(=O)c2ccc(OCC3CC3)cc2)ccc2cc([C@H](C)N3CCCC3)cnc12
0.85

// query Ratio value for entry CCCCCC(=O)c1ccc(C(=O)Nc2ccc3cc(CN4CCCC4)cnc3c2C)cc1
0.48

// query Ratio value for entry Cc1c(NC(=O)c2ccc(OCC(C)C)cc2)ccc2cc(CN3CCCC3)cnc12
0.7

* * *

- Target desc: hERG (KCNH2) (Homo sapiens, UniProt Q12809)
- Sequence (Q12809 whole entry): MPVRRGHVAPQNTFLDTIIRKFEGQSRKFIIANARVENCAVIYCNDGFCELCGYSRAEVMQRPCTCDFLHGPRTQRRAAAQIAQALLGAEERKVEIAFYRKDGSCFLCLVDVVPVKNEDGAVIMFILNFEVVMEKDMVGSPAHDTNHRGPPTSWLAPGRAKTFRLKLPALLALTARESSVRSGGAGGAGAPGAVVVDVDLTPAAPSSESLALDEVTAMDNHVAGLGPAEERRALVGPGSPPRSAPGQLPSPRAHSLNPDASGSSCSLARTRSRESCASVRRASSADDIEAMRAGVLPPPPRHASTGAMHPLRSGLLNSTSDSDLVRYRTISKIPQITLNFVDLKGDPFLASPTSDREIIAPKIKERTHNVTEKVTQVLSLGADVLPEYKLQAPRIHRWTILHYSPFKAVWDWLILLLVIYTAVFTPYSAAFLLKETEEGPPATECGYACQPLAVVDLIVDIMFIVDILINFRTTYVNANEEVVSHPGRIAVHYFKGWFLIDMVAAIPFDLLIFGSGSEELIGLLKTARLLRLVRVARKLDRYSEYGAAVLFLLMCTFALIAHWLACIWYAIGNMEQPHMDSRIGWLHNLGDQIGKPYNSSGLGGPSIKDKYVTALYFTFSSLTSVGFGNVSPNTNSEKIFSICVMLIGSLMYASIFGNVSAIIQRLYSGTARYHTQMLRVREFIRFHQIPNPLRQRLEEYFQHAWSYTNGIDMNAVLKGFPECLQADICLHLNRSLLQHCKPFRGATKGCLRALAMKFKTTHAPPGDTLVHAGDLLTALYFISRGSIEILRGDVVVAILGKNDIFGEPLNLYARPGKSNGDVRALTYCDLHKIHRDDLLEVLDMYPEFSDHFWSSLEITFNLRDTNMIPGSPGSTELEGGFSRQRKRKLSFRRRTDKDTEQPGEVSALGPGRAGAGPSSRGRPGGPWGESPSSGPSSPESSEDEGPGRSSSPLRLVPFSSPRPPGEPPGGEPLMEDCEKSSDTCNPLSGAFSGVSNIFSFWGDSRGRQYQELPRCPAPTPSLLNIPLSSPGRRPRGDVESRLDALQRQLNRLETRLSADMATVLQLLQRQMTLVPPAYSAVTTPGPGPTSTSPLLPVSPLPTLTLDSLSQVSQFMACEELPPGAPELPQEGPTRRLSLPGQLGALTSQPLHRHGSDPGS
- Assay explanation: Inhibition of human ERG expressed in HMZ/CHO.8B4 cells at 10 uM by patch clamp assay
- Assay type: cell-based
- Condition details: HMZ/CHO.8B4 cells expressing human ERG
Quick reference for inhibition at 10 µM among some compounds
Return type: number; implicit unit %.

> print(dat)
                                   compound                               target.desc  result.units  observed.measurement
1  Cc1c(NC(=O)c2ccc(OCC3CC3)cc2)ccc2cc(C(C)N3CC[C@H](O)C3)cnc12 (mixture of isomers)  hERG (KCNH2) (Homo sapiens, UniProt Q12809)             %                  58.4
2  Cc1c(NC(=O)c2ccc(OCC3CC3)cc2)ccc2cc(C(C)NCC(C)(C)O)cnc12 (racemic)  hERG (KCNH2) (Homo sapiens, UniProt Q12809)             %                  63.3
3  CC(=O)NCCN[C@@H](C)c1cnc2c(C)c(NC(=O)c3ccc(OCC4CC4)cc3)ccc2c1  hERG (KCNH2) (Homo sapiens, UniProt Q12809)             %                  33.3
4  Cc1c(NC(=O)c2ccc(OCC3CC3)cc2)ccc2cc(C(C)NCCO)cnc12 (racemic)  hERG (KCNH2) (Homo sapiens, UniProt Q12809)             %                  84.8
5  CC(=O)NCCN[C@H](C)c1cnc2c(C)c(NC(=O)c3ccc(OCC4CC4)cc3)ccc2c1  hERG (KCNH2) (Homo sapiens, UniProt Q12809)             %                  33.2

// query inhibition at 10 µM value for entry Cc1c(NC(=O)c2ccc(OCC3CC3)cc2)ccc2cc([C@@H](C)N3CCCC3)cnc12
88.1

// query inhibition at 10 µM value for entry CC(=O)NCCNC(C)c1cnc2c(C)c(NC(=O)c3ccc(OCC4CC4)cc3)ccc2c1 (racemic)
29.3

// query inhibition at 10 µM value for entry Cc1c(NC(=O)c2ccc(-c3ccc(F)cc3)cc2)ccc2cc(CN3CCCC3)cnc12
93.8

* * *

- Target desc: Melanin-concentrating hormone receptor 1 (Homo sapiens)
- Assay explanation: Displacement of [125I]MCH from human MCHR1 expressed in CHO cells after 60 mins by liquid scintillation counting
- Assay type: cell-based
Readout name: IC50 (nM)
Return type: number; implicit unit nM.

Example entries begin here.
> print(dat)
                                   molecule                               target.desc  readout.name  observed.measurement
1  Cc1c(NC(=O)c2ccc(OCC(C)C)cc2)ccc2cc(CN3CCCC3)cnc12  Melanin-concentrating hormone receptor 1 (Homo sapiens)          IC50                   4.4
2  Cc1c(NC(=O)c2ccc(OCC3CC3)cc2)ccc2cc([C@H](C)N3CCCC3)cnc12  Melanin-concentrating hormone receptor 1 (Homo sapiens)          IC50                   3.4
3  Cc1c(NC(=O)c2ccc(OCC3CC3)cc2)ccc2cc(C(C)N3CCCC3)cnc12 (racemic)  Melanin-concentrating hormone receptor 1 (Homo sapiens)          IC50                   1.7

Attention now turns to another entry.
// query IC50 value for entry CCCCCC(=O)c1ccc(C(=O)Nc2ccc3cc(CN4CCCC4)cnc3c2C)cc1
170

Just for reference, ChEMBL document CHEMBL2057191 is where these values come from.
